Cited source for all entries: ChEMBL document CHEMBL1201862

# TARGET ENTITY: RNA-binding protein pos-1 (Caenorhabditis elegans)
# Sequence (G5EF15 whole entry, the tested form may be a part): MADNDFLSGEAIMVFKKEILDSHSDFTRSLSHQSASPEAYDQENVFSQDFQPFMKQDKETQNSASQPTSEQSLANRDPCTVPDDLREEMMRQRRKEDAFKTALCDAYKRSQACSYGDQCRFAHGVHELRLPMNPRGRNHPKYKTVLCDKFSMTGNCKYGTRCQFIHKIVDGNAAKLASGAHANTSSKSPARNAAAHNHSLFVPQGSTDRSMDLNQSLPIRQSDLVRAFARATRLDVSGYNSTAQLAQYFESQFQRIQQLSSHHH
# PROTOCOL DESCRIPTION: disruptors of C. elegans POS-1 RNA interaction – biochemical, fluorescence polarization, dose response (AID 1964);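 also: purified POS-1 fused to maltose binding protein made in E. coli; potency of compounds blocking POS-1 binding to fluorescent RNA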
Active and inactive are the calls of the source.
MEASURE NAME: EC50

>>> df
                                   compound                             target_entity        reported_result
0       C=CCn1cc/c(=N\C=C(C#N)C#N)c2ccccc21  RNA-binding protein pos-1 (Caenorhabditis elegans)  > 300 µM (not active)
1  Cc1cc(C)c(/C=C2\C(=O)Nc3ccccc32)[nH]1 [SEMAXANIB]  RNA-binding protein pos-1 (Caenorhabditis elegans)  > 300 µM (not active)
2  CC1C2C(C)N(C)C(=O)N(C)C2N(C)C(=O)N1C (centres undefined)  RNA-binding protein pos-1 (Caenorhabditis elegans)         25 µM (active)
3  COC(=O)CNC(=O)C1Nc2ccccc2C2C=CCC12 (centres undefined)  RNA-binding protein pos-1 (Caenorhabditis elegans)  > 300 µM (not active)
4  Cn1c(=O)[nH]c(=O)c2c1nc(N/N=C/C(Br)=C/c1ccccc1)n2CCO  RNA-binding protein pos-1 (Caenorhabditis elegans)        206 µM (active)

Qu. Query (compound): Cc1ccc(C2C(C(=O)c3ccco3)=C(O)C(=O)N2c2nnc(C)s2)cc1 (centres undefined) ; field requested: EC50
Ans. > 300 µM (not active)

Qu. Then "NS(=O)(=O)c1ccc(-c2ccc(/C=C3\NC(=S)NC3=O)o2)cc1" ?
Ans. 21.7 µM (inconclusive)

Qu. Same question for "COc1cc2c3nnc(-c4ccccc4)c-3cn(Cc3ccccc3F)c2cc1OC" please.
Ans. > 300 µM (not active)

Qu. Follow-up item: "Cc1ccc(/C=C2/Sc3ccc(C(=O)N4CCN(c5ccccn5)CC4)cc3NC2=O)cc1"
Ans. 27.2 µM (active)

###

# PROTOCOL DESCRIPTION: Luminescence Cell-Based Dose Response HTS to Identify Inhibitors of 5'UTR Stem-Loop Driven Prion Protein mRNA Translation in H4 Neuroglioblastoma Cells. [Related pubchem assays: 1827 (Project Summary), 1813 (Primary HTS)]
# Format: functional
A collection of molecules and their measured EC50

Qu. Query: EC50; subject: CCc1ccc(NC(=O)C(C)OC(=O)c2c(C)nn(Cc3ccccc3)c2Cl)cc1 (configuration not stated)
Ans. > 120 µM (not active)

###

# TARGET ENTITY: Histone-lysine N-methyltransferase NSD2 (Homo sapiens, UniProt O96028)
# Sequence (O96028 whole entry): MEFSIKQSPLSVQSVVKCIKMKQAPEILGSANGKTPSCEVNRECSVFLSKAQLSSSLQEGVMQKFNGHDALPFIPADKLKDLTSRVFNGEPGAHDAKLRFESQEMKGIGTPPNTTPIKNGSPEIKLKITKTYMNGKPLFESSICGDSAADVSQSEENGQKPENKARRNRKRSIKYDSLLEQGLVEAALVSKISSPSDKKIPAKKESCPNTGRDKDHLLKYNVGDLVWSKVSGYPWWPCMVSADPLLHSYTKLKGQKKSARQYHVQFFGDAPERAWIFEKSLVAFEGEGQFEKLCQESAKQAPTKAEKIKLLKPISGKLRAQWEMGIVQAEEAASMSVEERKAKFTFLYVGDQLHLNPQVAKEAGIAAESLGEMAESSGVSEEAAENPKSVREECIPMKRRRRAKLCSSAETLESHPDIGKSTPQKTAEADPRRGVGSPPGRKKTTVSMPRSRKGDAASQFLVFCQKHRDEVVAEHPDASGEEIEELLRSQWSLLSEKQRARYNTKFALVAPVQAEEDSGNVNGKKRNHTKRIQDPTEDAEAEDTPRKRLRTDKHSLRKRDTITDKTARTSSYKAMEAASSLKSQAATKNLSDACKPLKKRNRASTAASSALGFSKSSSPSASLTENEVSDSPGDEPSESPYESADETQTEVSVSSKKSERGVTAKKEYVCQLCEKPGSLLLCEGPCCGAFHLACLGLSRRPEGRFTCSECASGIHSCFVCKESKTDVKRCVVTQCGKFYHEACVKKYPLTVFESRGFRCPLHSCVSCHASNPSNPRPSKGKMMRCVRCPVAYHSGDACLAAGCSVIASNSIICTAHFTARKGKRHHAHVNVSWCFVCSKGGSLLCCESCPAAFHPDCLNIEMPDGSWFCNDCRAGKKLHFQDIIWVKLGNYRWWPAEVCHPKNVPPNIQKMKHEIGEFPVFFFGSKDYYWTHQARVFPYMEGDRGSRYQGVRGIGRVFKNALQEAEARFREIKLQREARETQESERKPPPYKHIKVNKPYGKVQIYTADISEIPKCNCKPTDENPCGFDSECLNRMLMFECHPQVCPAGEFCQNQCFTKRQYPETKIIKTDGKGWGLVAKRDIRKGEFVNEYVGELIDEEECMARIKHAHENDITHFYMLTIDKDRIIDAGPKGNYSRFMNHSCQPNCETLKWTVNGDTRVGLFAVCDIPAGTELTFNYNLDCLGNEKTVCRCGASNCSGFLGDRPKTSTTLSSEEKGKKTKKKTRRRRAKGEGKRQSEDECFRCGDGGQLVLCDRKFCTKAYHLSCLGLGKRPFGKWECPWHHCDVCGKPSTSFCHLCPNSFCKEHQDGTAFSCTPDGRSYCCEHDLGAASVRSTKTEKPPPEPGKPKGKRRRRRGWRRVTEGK
# Assay type: biochemical
The source made the active and inactive calls.
Returns: one label drawn from active, inactive

Study these solved cases before continuing.
In [3]: df
Out[3]:
                  compound_structure_string  discrete_label
0  CCc1ccc(-n2cccc2/C=C2/C(=N)N3C(=NC2=O)SN=C3S(C)(=O)=O)cc1          active
1  O=C(N/N=C1\C/C(=N\NC(=O)c2ccncc2)c2ccccc21)c1ccncc1          active
2  CCN(CC)CCCN(Cc1cc2cc(OC)ccc2nc1O)C(=O)Nc1ccc(F)cc1          active
3  CCN(CC)c1ccc(C(=C2C=CC(=[N+](CC)CC)C=C2)c2ccc(N(CC)CC)cc2)cc1          active
4  CSC1=NSC2=NC(=O)/C(=C/c3coc4ccccc4c3=O)C(=N)N12          active
5                 CCN(CC)CCC(=O)c1ccc(F)cc1        inactive
6  COc1ccc(-n2c3nc4ccccc4nc3c3c(=N)oc(C)nc32)cc1        inactive

Please turn your attention to the following entry.
Qu. Answer briefly: the call reported for "Cc1cccc(N2NC(=O)/C(=C/c3ccc(-c4ccc(Cl)c(C(=O)O)c4)o3)C2=O)c1" in this assay.
Ans. inactive
